System: FAB9
Assay: qHTS profiling for inhibitors of Plasmodium falciparum proliferation (AID 504749); also: nearly all actives have a fitted effect of over 60% in size
Settings: P. falciparum in erythrocytes, SYBR Green DNA, 72 h; series mostly up to 28.7 µM
Description: NIH National Institute of Allergy and Infectious Diseases [NIAID] NIH Chemical Genomics Center [NCGC] […] Because mature erythrocytes lack DNA, only Plasmodium-derived DNA is detected. NCGC Assay Protocol Summary: The SYBR Green viability assay was adapted from a method described previously (Plouffe et al., 2008). […] The following morning, fluorescence intensity at 485(14) nm excitation and 535(25) nm emission wavelengths was measured on an EnVision (Perkin Elmer) plate reader. […]
Records with an inconclusive call do not appear. Calls of active or inactive are those of the source. Calls follow the shape of the dose curve; as a rule, active = well fitted inhibition curve with a large enough effect; inconclusive = small, poorly fitted or top-dose-only effect; inactive = flat fitted curve, though single readings scatter.
Write down one outcome, taken from label 1 = active, label 0 = inactive

CCCCCCCCCCCCCC[N+](C)(C)Cc1ccccc1
label 1
Cc1nc(-c2ccc(Cl)cc2)oc1COC(C)(C)C(=O)O
label 0
COc1cc(NS(=O)(=O)c2ccc(N)cc2)ncn1
label 0
CC(C)CCCC(C)N (stereo not drawn)
label 0
Cc1cc(CC(=O)O)c(C)n1-c1ccc(Cl)cc1
label 0

**Query** Dear all, I need the recorded test outcome for "NC(=O)c1ccccc1O" , thank you.
**Result** label 0

**Query** Another: COC(=O)C(c1ccccc1Cl)N1CCc2sccc2C1 (stereo not drawn)
**Result** label 0

**Query** Another: Cc1cc2c(OCC(CNC(C)(C)C)OC(=O)c3ccccc3)cccc2[nH]1 (stereo not drawn)
**Result** label 0

###

System: CRL-7250
Experiment: Cytotoxic Profiling of Annotated Libraries Using Quantitative High-Throughput Screening (AID 1296008); also: nearly all actives have a fitted effect of over 60% in size
Conditions: Five cell lines viability, CellTiter-Glo ATP luminescence, 48-72 h
Records with an inconclusive call do not appear. Activity calls are given as the source filed them. The call rests on the fitted dose curve; in most records, active means well fitted inhibition curve with a large enough effect; inconclusive means small, poorly fitted or top-dose-only effect; inactive means flat fitted curve, though single readings scatter.
Write down one outcome, taken from yes (1) = active, no (0) = inactive

These recorded examples may help you get a feel for the data.
NC(N)=NN=C(/C=C/c1ccc([N+](=O)[O-])o1)/C=C/c1ccc([N+](=O)[O-])o1
yes (1)
O=[N+]([O-])c1cccc(S(=O)(=O)NCCNS(=O)(=O)c2cccc([N+](=O)[O-])c2)c1
no (0)
Cc1cn([C@H]2C[C@H](F)[C@@H](CO)O2)c(=O)[nH]c1=O
no (0)
CCN(CC)CCNc1ccc(CO)c2sc3ccccc3c(=O)c12
yes (1)
COc1ccc(C(=O)c2ccccc2O)c(O)c1
no (0)

**Query** Dear all, I need the recorded test outcome for "O=C(Nc1cccc(C2=NCCN2)c1)Nc1cccc(C2=NCCN2)c1" , thank you.
**Result** no (0)

**Query** Another: OC1C(O)C(O)C(O)C(O)C1O (stereo unspecified)
**Result** no (0)

**Query** Another: "OC[C@H]1O[C@@H]2O[C@H]3[C@H](O)[C@@H](O)[C@@H](O[C@H]4[C@H](O)[C@@H](O)[C@@H](O[C@H]5[C@H](O)[C@@H](O)[C@@H](O[C@H]6[C@H](O)[C@@H](O)[C@@H](O[C@H]7[C@H](O)[C@@H](O)[C@@H](O[C@H]8[C@H](O)[C@@H](O)[C@@H](O[C@H]1[C@H](O)[C@H]2O)O[C@@H]8CO)O[C@@H]7CO)O[C@@H]6CO)O[C@@H]5CO)O[C@@H]4CO)O[C@@H]3CO"
**Result** no (0)

**Query** Another: "Cc1ccc2c(Br)cc(Br)c(O)c2n1"
**Result** yes (1)

**Query** Another: "COc1ccc(C(Cl)=C(c2ccc(OC)cc2)c2ccc(OC)cc2)cc1"
**Result** no (0)

**Query** Another: NC1CCN(c2nc3c(cc2F)c(=O)c(C(=O)O)cn3-c2ccc(F)cc2F)C1 (stereo unspecified)
**Result** no (0)

###

Test system: CP250
Assay: qHTS profiling for inhibitors of Plasmodium falciparum proliferation (AID 504749); also: nearly all actives have a fitted effect of over 60% in size
Conditions: P. falciparum in erythrocytes, SYBR Green DNA, 72 h; series mostly up to 28.7 µM
Records with an inconclusive call do not appear. Activity calls are given as the source filed them. Calls come from the whole dose curve; as a rule, active = well fitted inhibition curve with a large enough effect; inconclusive = small, poorly fitted or top-dose-only effect; inactive = flat fitted curve, though single readings scatter.
Write down one outcome, taken from 1 (yes) = active, 0 (no) = inactive

**Query** Dear all, I need the recorded test outcome for "N=C(N)N1CCc2ccccc2C1" , thank you.
**Result** 0 (no)

###

Assay: qHTS of pediatric cancer cell lines to identify multiple opportunities for drug repurposing: Primary screen for NB1643 cells (AID 1347099);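 also: plate controls were DMSO neutral control for no effect and bortezomib positive control for full effect; nearly all actives have a fitted effect of over 50% in size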
Conditions: NB1643 neuroblastoma viability, CellTiter-Glo luminescence, 48 h; series mostly up to 46 µM
Records with an inconclusive call do not appear. Activity calls are given as the source filed them. The call rests on the fitted dose curve; in most records, active means well fitted cell-killing curve with a large enough effect; inconclusive means small, poorly fitted or top-dose-only effect; inactive means no such curve, though single readings can be large or run the other way.
Write down one outcome, taken from YES (active), NO (inactive)

**Query** Dear all, I need the recorded test outcome for NS(=O)(=O)c1cc2c(cc1Cl)NC(CC1CCCC1)NS2(=O)=O (stereo not given) , thank you.
**Result** NO

**Query** Another: CC1CCc2c(N3CCC(O)CC3)c(F)cc3c(=O)c(C(=O)O)cn1c23 (stereo not given)
**Result** NO

**Query** Another: "O=C(O)CCc1nc2ccccc2[nH]1"
**Result** NO

**Query** Another: "Cn1c(=O)c2[nH]c(Br)nc2n(C)c1=O"
**Result** NO

**Query** Another: CC(O)Cn1cnc2c1c(=O)n(C)c(=O)n2C (stereo not given)
**Result** NO

**Query** Another: "c1ccc(-c2nc[nH]c2-c2ccccc2)cc1"
**Result** NO

**Query** Another: "CCCCCCCCOc1ccc(C(=O)c2ccccc2)c(O)c1"
**Result** NO

###

Tested on: CP201
Test: qHTS profiling for inhibitors of Plasmodium falciparum proliferation (AID 504749); also: nearly all actives have a fitted effect of over 60% in size
Conditions: P. falciparum in erythrocytes, SYBR Green DNA, 72 h; series mostly up to 28.7 µM
Inconclusive results are not listed. The source made the active and inactive calls. Calls follow the shape of the dose curve; as a rule, active = well fitted inhibition curve with a large enough effect; inconclusive = small, poorly fitted or top-dose-only effect; inactive = flat fitted curve, though single readings scatter.
Write down one outcome, taken from active, inactive

N#CCC(=O)NN
inactive
CN(C)CCC[C@@]1(c2ccc(F)cc2)OCc2cc(C#N)ccc21
inactive
C#C[C@]1(O)CC[C@H]2[C@@H]3CCC4=Cc5oncc5C[C@]4(C)[C@H]3CC[C@@]21C
inactive
O=[N+]([O-])c1cccc(S(=O)(=O)NCCNS(=O)(=O)c2cccc([N+](=O)[O-])c2)c1
inactive
Cc1cc(NS(=O)(=O)c2ccc(N)cc2)nc(C)n1
inactive

We next turn to a different compound, shown below.
**Query** Dear all, I need the recorded test outcome for O=C(CCN1CCN2CCCC2C1)N1c2ccccc2Sc2ccc(Cl)cc21 (configuration not stated) , thank you.
**Result** inactive

###

System: OV90
Assay: Primary qHTS to identify gynecologic anti-cancer compounds using libraries of approved drugs and bioactive compounds (AID 1345084); also: nearly all actives have a fitted effect of over 55% in size
Conditions: Gynecologic cancer cell panel viability, ATPlite luminescence, 48 h; series mostly up to 57.5 µM
Source text: National Center for Advancing Translational Sciences [NCATS] Assay Overview: Chemotherapeutic drug responses vary from cancer to cancer and from patient to patient. […] ATPlite is a luminescence based assay reliant on the conversion of a luciferase substrate to light in the presence of ATP. As a cytotoxic compound will suppress growth and decrease the number of cells, the concentration of ATP will decrease, and less light signal will be detected in the well. […]
Inconclusive results are not listed. Activity calls are given as the source filed them. Calls follow the shape of the dose curve; as a rule, active = well fitted cell-killing curve with a large enough effect; inconclusive = small, poorly fitted or top-dose-only effect, or effect the other way; inactive = flat fitted curve, though single readings scatter.
Write down one outcome, taken from active, inactive

CC(=O)Nc1ccc(OC(=O)c2ccccc2OC(C)=O)cc1
inactive
CC(=C(CCOC(=O)C(C)C)SSC(CCOC(=O)C(C)C)=C(C)N(C=O)Cc1cnc(C)nc1N)N(C=O)Cc1cnc(C)nc1N
inactive
CCCCCCCCCCCCOCCOCCOCCOCCOCCOCCOCCOCCOCCO
active
Oc1c(Cl)cc(Cl)c(Cl)c1Cc1c(O)c(Cl)cc(Cl)c1Cl
active
COc1ccccc1N1CCN(CCCCNC(=O)c2ccc(-c3ccc(C(C)=O)cc3)cc2)CC1
inactive
NS(=O)(=O)c1cc(C(=O)O)cc(N2CCCC2)c1Oc1ccccc1
inactive

**Query** Dear all, I need the recorded test outcome for "O=C(O)C1(C(=O)O)CCC1.[NH2-].[NH2-].[Pt+2]" , thank you.
**Result** inactive

**Query** Another: "CCN1CCN(C(=O)N[C@@H](C(=O)N[C@@H]2C(=O)N3C(C(=O)O)=C(CSc4nnnn4C)CS[C@H]23)c2ccc(O)cc2)C(=O)C1=O"
**Result** inactive

**Query** Another: "CN1CCN(C2=Nc3ccccc3Sc3ccc(Cl)cc32)CC1"
**Result** inactive

**Query** Another: "N[C@H](C(=O)O)[C@@H](O)c1ccc(O)c(O)c1"
**Result** inactive

**Query** Another: "CNCCc1ccccn1"
**Result** inactive

**Query** Another: "CC(=O)Nc1ncc([N+](=O)[O-])s1"
**Result** inactive

**Query** Another: "OC(C#CCN1CCCC1)(c1ccccc1)c1ccccc1"
**Result** inactive

**Query** Another: "COc1ccc2c(c1)c1c3n2CCN(C)C3=NCC1"
**Result** inactive

**Query** Another: "CC1=C(C(=O)O)N2C(=O)[C@@H](NC(=O)[C@H](N)c3ccccc3)[C@H]2SC1"
**Result** inactive

**Query** Another: "OC[C@H]1O[C@@H]2O[C@H]3[C@H](O)[C@@H](O)[C@@H](O[C@H]4[C@H](O)[C@@H](O)[C@@H](O[C@H]5[C@H](O)[C@@H](O)[C@@H](O[C@H]6[C@H](O)[C@@H](O)[C@@H](O[C@H]7[C@H](O)[C@@H](O)[C@@H](O[C@H]8[C@H](O)[C@@H](O)[C@@H](O[C@H]1[C@H](O)[C@H]2O)O[C@@H]8CO)O[C@@H]7CO)O[C@@H]6CO)O[C@@H]5CO)O[C@@H]4CO)O[C@@H]3CO"
**Result** inactive
